Biological target: T1, OTULIN (OTU deubiquitinase with linear linkage specificity, FAM105B), His-tagged, biotin-labelled (human, UniProt Q96BN8 1-352, biotin (label; sites not stated))
T1 construct: OTULIN (FAM105B), cDNA in pET28a; also called HIS-OTULIN; source: E. coli BL21 (DE3), purified (His-tag Purification Resin), labelled with biotin; not shown: His6, N-terminal, kept
Experiment: peptide or protein array; HuProt human proteome microarray; 5 ug/5 ml biotin-labelled LUBAC or OTULIN in solution, 1 h at room temperature; Cy5-streptavidin, scanned at 635 nm; BSA as negative control; hits: Z-score >= 3 and I_(Mean_Ratio) >= 1.4
Conditions: both partners purified
Endpoint Label: binding result

Recorded results for 4 binders are shown here.
{"Binder": "NAT6 (natural protein, human, UniProt Q93015 1-286, looked up, NAT6; protein on the human proteome microarray; source: spotted on the HuProt human proteome microarray) MELILSTSPAELTLDPACQPKLPLDSTCQPEMTFNPGPTELTLDPEHQPEETPAPSLAELTLEPVHRRPELLDACADLINDQWPRSRTSRLHSLGQSSDAFPLCLMLLSPHPTLEAAPVVVGHARLSRVLNQPQSLLVETVVVARALRGRGFGRRLMEGLEVFARARGFRKLHLTTHDQVHFYTHLGYQLGEPVQGLVFTSRRLPATLLNAFPTAPSPRPPRKAPNLTAQAAPRGPKGPPLPPPPPLPECLTISPPVPSGPPSKSLLETQYQNVRGRPIFWMEKDI", "binding result": "binds"}
{"Binder": "KHDRBS3 (natural protein, human, UniProt O75525 1-346, looked up, KHDRBS3; protein on the human proteome microarray; source: spotted on the HuProt human proteome microarray) MEEKYLPELMAEKDSLDPSFTHALRLVNQEIEKFQKGEGKDEEKYIDVVINKNMKLGQKVLIPVKQFPKFNFVGKLLGPRGNSLKRLQEETLTKMSILGKGSMRDKAKEEELRKSGEAKYFHLNDDLHVLIEVFAPPAEAYARMGHALEEIKKFLIPDYNDEIRQAQLQELTYLNGGSENADVPVVRGKPTLRTRGVPAPAITRGRGGVTARPVGVVVPRGTPTPRGVLSTRGPVSRGRGLLTPRARGVPPTGYRPPPPPPTQETYGEYDYDDGYGTAYDEQSYDSYDNSYSTPAQSGADYYDYGHGLSEETYDSYGQEEWTNSRHKAPSARTAKGVYRDQPYGRY", "binding result": "binds"}
{"Binder": "FAM49B (natural protein, human, UniProt Q9NUQ9 1-324, looked up, FAM49B; protein on the human proteome microarray; source: spotted on the HuProt human proteome microarray) MGNLLKVLTCTDLEQGPNFFLDFENAQPTESEKEIYNQVNVVLKDAEGILEDLQSYRGAGHEIREAIQHPADEKLQEKAWGAVVPLVGKLKKFYEFSQRLEAALRGLLGALTSTPYSPTQHLEREQALAKQFAEILHFTLRFDELKMTNPAIQNDFSYYRRTLSRMRINNVPAEGENEVNNELANRMSLFYAEATPMLKTLSDATTKFVSENKNLPIENTTDCLSTMASVCRVMLETPEYRSRFTNEETVSFCLRVMVGVIILYDHVHPVGAFAKTSKIDMKGCIKVLKDQPPNSVEGLLNALRYTTKHLNDETTSKQIKSMLQ", "binding result": "binds"}
{"Binder": "NME2 (natural protein, human, UniProt P22392 1-152, looked up, NME2; protein on the human proteome microarray; source: spotted on the HuProt human proteome microarray) MANLERTFIAIKPDGVQRGLVGEIIKRFEQKGFRLVAMKFLRASEEHLKQHYIDLKDRPFFPGLVKYMNSGPVVAMVWEGLNVVKTGRVMLGETNPADSKPGTIRGDFCIQVGRNIIHGSDSVKSAEKEISLWFKPEELVDYKSCAHDWVYE", "binding result": "binds"}

Field: next binder
Request: Report binding result for NABP1 (natural protein, human, UniProt Q96AH0 1-204, looked up, NABP1; protein on the human proteome microarray; source: spotted on the HuProt human proteome microarray) MNRVNDPLIFIRDIKPGLKNLNVVFIVLEIGRVTKTKDGHEVRSCKVADKTGSITISVWDEIGGLIQPGDIIRLTRGYASMWKGCLTLYTGRGGELQKIGEFCMVYSEVPNFSEPNPDYRGQQNKGAQSEQKNNSMNSNMGTGTFGPVGNGVHTGPESREHQFSHAGRSNGRGLINPQLQGTASNQTVMTTISNGRDPRRAFKR please.
Result: binds
